System: U2OS-mOrange2-Peroxisome
Assay: cell count relative to DMSO control (panel B, lysosome/peroxisome/lipid stain) (fraction of control); higher = more cells (less toxicity)
Conditions: 2.5 µM; treatment time: 24 h
Measured cell count, listed per entry.

| compound | cell count |
| --- | --- |
| CO[C@@]12[C@H](COC(N)=O)C3=C(C(=O)C(C)=C(N)C3=O)N1C[C@@H]1N[C@@H]12 | 0.72 |
| COc1cc(NS(C)(=O)=O)ccc1Nc1c2ccccc2nc2ccccc12 | 0.428 |
| O=c1[nH]c(=O)n([C@H]2C[C@H](O)[C@@H](CO)O2)cc1F | 1.14 |
| CC[C@H]1CN2CCc3cc(OC)c(OC)cc3[C@@H]2C[C@@H]1C[C@H]1NCCc2cc(OC)c(OC)cc21 | 1.04 |
| O=C(N/N=C/c1ccc(O)c(O)c1)c1cc2ccccc2cc1O | 1.03 |
| CC[C@]1(O)C[C@H]2CN(CCc3c([nH]c4ccccc34)[C@@](C(=O)OC)(c3cc4c(cc3OC)N(C=O)[C@H]3[C@@](O)(C(=O)OC)[C@H](OC(C)=O)[C@]5(CC)C=CCN6CC[C@]43[C@@H]65)C2)C1 | 0.793 |
| O=C(O)CCCCC(CCSCc1ccccc1)SCc1ccccc1 (stereo not drawn) | 1.1 |
| CCCCCCCC(=O)N[C@H](CN1CCCC1)[C@H](O)c1ccc2c(c1)OCCO2 | 0.767 |
| COc1cccc2c1C(=O)c1c(O)c3c(c(O)c1C2=O)C[C@@](O)(C(C)=O)C[C@@H]3O[C@H]1C[C@H](N)[C@H](O)[C@H](C)O1 | 0.398 |
| COC(=O)Nc1nc2ccc(C(=O)c3cccs3)cc2[nH]1 | 0.628 |
| O=C(Oc1cc(S(=O)(=O)c2ccccc2)ccc1[N+](=O)[O-])c1ccc(Cl)cc1 | 1.02 |
| N#CC(C#N)=NNc1ccc(OC(F)(F)F)cc1 | 0.625 |
| CC[C@H]1/C=C/C=C/C[C@@H](C)[C@H](O)[C@@](C)(O)C(=O)[C@@H](C)[C@H](O)[C@@H](C)C(=O)[C@@H](C)[C@H](O)[C@@H](C)/C=C/C(=O)O[C@@H]2[C@H](C)[C@H](CC1)O[C@]1(CC[C@H](C)[C@H](C[C@@H](C)O)O1)[C@H]2C | 0.858 |
| CN(C)[C@@H]1C(O)=C(C(N)=O)C(=O)[C@@]2(O)C(O)=C3C(=O)c4c(O)ccc(Cl)c4[C@@](C)(O)[C@H]3C[C@@H]12 | 0.944 |
| CC(=O)N[C@@H](CC(C)C)C(=O)N[C@@H](CC(C)C)C(=O)N[C@H](C=O)CCCN=C(N)N | 0.771 |
| CN(Cc1cnc2nc(N)nc(N)c2n1)c1ccc(C(=O)N[C@@H](CCC(=O)O)C(=O)O)cc1 [methotrexate] | 0.78 |
| Nc1ccn([C@@H]2O[C@H](CO)[C@@H](O)C2(F)F)c(=O)n1 | 0.576 |
| Cc1ccc(S(=O)(=O)c2ccc([N+](=O)[O-])o2)cc1 | 1.16 |
| C[C@H]1CCC/C=C/[C@@H]2C[C@H](O)C[C@H]2[C@H](O)/C=C/C(=O)O1 | 0.574 |
| OC(CS)C(O)CS (stereo not drawn) | 0.911 |
| O=C(CCCN1CCC(O)(c2ccc(Cl)cc2)CC1)c1ccc(F)cc1 | 0.88 |
| CCCCCCCCCCCCCCCCCCOP(=O)([O-])OC1CC[N+](C)(C)CC1 | 0.928 |
| CCOc1ccccc1-n1c(C(C)N2CCN(C(=O)COc3ccc(Cl)cc3)CC2)nc2ccccc2c1=O (stereo not drawn) | 0.612 |
| Cn1c(CCCC(=O)O)nc2cc(N(CCCl)CCCl)ccc21 | 0.371 |
| O=C(/C=C/c1cccc(S(=O)(=O)Nc2ccccc2)c1)NO | 1.14 |
| O=C1c2c(O)ccc(O)c2C(=O)c2c(NCCNCCO)ccc(NCCNCCO)c21 | 0.544 |
| NCCCCC(N)C(=O)NC(CCCCN)C(=O)NC(Cc1c[nH]c2ccccc12)C(=O)NC(Cc1c[nH]c2ccccc12)C(=O)NC(CCCCN)C(=O)NC(CCCCN)C(=O)NC(Cc1c[nH]c2ccccc12)C(=O)NC(C(=O)NC(CCCCN)C(N)=O)C(c1ccccc1)c1ccccc1 (stereo not drawn) | 0.766 |
| NS(=O)(=O)C#Cc1ccccc1 | 1.08 |

###

Tested on: U2OS
Assay: cell count relative to DMSO control (panel A, nuclei/RNA/PMG/mitochondria stain) (fraction of control); higher = more cells (less toxicity)
Settings: 0.625 µM; treatment time: 24 h
Entries annotated with measured cell count
reported property: cell count

| compound | target under test | recorded value |
| --- | --- | --- |
| C=CCNC1=C2C[C@@H](C)C[C@H](OC)[C@H](O)[C@@H](C)/C=C(\C)[C@H](OC(N)=O)[C@@H](OC)/C=C\C=C(/C)C(=O)NC(=CC1=O)C2=O [tanespimycin] | U2OS | 0.901 |
| O=C(N/N=C/c1ccc(O)c(O)c1)c1cc2ccccc2cc1O [dynasore] | U2OS | 1.01 |
| CC[C@H]1/C=C/C=C/C[C@@H](C)[C@H](O)[C@@](C)(O)C(=O)[C@@H](C)[C@H](O)[C@@H](C)C(=O)[C@@H](C)[C@H](O)[C@@H](C)/C=C/C(=O)O[C@@H]2[C@H](C)[C@H](CC1)O[C@]1(CC[C@H](C)[C@H](C[C@@H](C)O)O1)[C@H]2C [oligomycin-a] | U2OS | 0.995 |
| COc1ccc2cc1Oc1ccc(cc1)C[C@H]1c3cc(c(OC)cc3CCN1C)Oc1c(OC)c(OC)cc3c1[C@H](C2)N(C)CC3 [tetrandrine] | U2OS | 1 |
| CCCC[C@@H](C=O)NC(=O)[C@H](CC(C)C)NC(=O)[C@H](CC(C)C)NC(C)=O [MG-101] | U2OS | 0.975 |
| COC(=O)Nc1nc2ccc(C(=O)c3cccs3)cc2[nH]1 [nocodazole] | U2OS | 0.962 |
| COc1ccc(C[C@H]2NC[C@H](O)[C@H]2OC(C)=O)cc1 [anisomycin] | U2OS | 0.502 |

###

System: U2OS-LMNB1-TUBA1B-ACTB
Experiment: cell count relative to DMSO control (panel C1, DRAQ5/ER stain) (fraction of control); higher = more cells (less toxicity)
Settings: 20 µM; treatment time: 24 h
Listing: cell count of selected compounds

| structure smiles | cell count |
| --- | --- |
| COc1cc(NS(C)(=O)=O)ccc1Nc1c2ccccc2nc2ccccc12 | 0.373 |
| CC(C=CC(=O)NO)=C[C@@H](C)C(=O)c1ccc(N(C)C)cc1 | 0.314 |
| CC[C@]1(O)C[C@H]2CN(CCc3c([nH]c4ccccc34)[C@@](C(=O)OC)(c3cc4c(cc3OC)N(C=O)[C@H]3[C@@](O)(C(=O)OC)[C@H](OC(C)=O)[C@]5(CC)C=CCN6CC[C@]43[C@@H]65)C2)C1 | 0.59 |

###

Tested on: U2OS-LMNB1-TUBA1B-ACTB
Test: cell count relative to DMSO control (panel C1, DRAQ5/ER stain) (fraction of control); higher = more cells (less toxicity)
Conditions: 0.625 µM; treatment time: 24 h
This section presents compounds with their documented cell count values.
reported property: cell count

| compound | target under test | reported property | recorded value |
| --- | --- | --- | --- |
| CCN(CC)CCCC(C)Nc1c2ccc(Cl)cc2nc2ccc(OC)cc12 (configuration not stated) [mepacrine] | U2OS-LMNB1-TUBA1B-ACTB | cell count | 1.01 |
| COc1cccc2c1C(=O)c1c(O)c3c(c(O)c1C2=O)C[C@@](O)(C(C)=O)C[C@@H]3O[C@H]1C[C@H](N)[C@H](O)[C@H](C)O1 [daunorubicin] | U2OS-LMNB1-TUBA1B-ACTB | cell count | 0.912 |
| Cc1ccc(S(=O)(=O)c2ccc([N+](=O)[O-])o2)cc1 | U2OS-LMNB1-TUBA1B-ACTB | cell count | 1.02 |
| CC(C)n1nc(-c2ccc3oc(N)nc3c2)c2c(N)ncnc21 [MLN0128] | U2OS-LMNB1-TUBA1B-ACTB | cell count | 0.698 |
| N#CC(C#N)=NNc1ccc(OC(F)(F)F)cc1 [FCCP] | U2OS-LMNB1-TUBA1B-ACTB | cell count | 1.13 |
| O=C(O)CCCCC(CCSCc1ccccc1)SCc1ccccc1 (configuration not stated) [CPI-613] | U2OS-LMNB1-TUBA1B-ACTB | cell count | 1.4 |
| O=C1c2c(O)ccc(O)c2C(=O)c2c(NCCNCCO)ccc(NCCNCCO)c21 [mitoxantrone] | U2OS-LMNB1-TUBA1B-ACTB | cell count | 0.465 |
| Cc1c2oc3c(C)ccc(C(=O)N[C@@H]4C(=O)N[C@H](C(C)C)C(=O)N5CCC[C@H]5C(=O)N(C)CC(=O)N(C)[C@@H](C(C)C)C(=O)O[C@@H]4C)c3nc-2c(C(=O)N[C@@H]2C(=O)N[C@H](C(C)C)C(=O)N3CCC[C@H]3C(=O)N(C)CC(=O)N(C)[C@@H](C(C)C)C(=O)O[C@@H]2C)c(N)c1=O [dactinomycin] | U2OS-LMNB1-TUBA1B-ACTB | cell count | 1.09 |
| COc1ccc(C[C@H](N)C(=O)N[C@H]2[C@@H](O)[C@H](n3cnc4c(N(C)C)ncnc43)O[C@@H]2CO)cc1 [puromycin] | U2OS-LMNB1-TUBA1B-ACTB | cell count | 1.13 |
| CC[C@H]1CN2CCc3cc(OC)c(OC)cc3[C@@H]2C[C@@H]1C[C@H]1NCCc2cc(OC)c(OC)cc21 [emetine] | U2OS-LMNB1-TUBA1B-ACTB | cell count | 1.08 |
| Nc1c2ccccc2nc2ccccc12 [9-aminoacridine] | U2OS-LMNB1-TUBA1B-ACTB | cell count | 1.05 |
| OC(CS)C(O)CS (configuration not stated) [DTT] | U2OS-LMNB1-TUBA1B-ACTB | cell count | 0.811 |
| C[C@H]1CCC/C=C/[C@@H]2C[C@H](O)C[C@H]2[C@H](O)/C=C/C(=O)O1 [brefeldin-a] | U2OS-LMNB1-TUBA1B-ACTB | cell count | 0.697 |
| Cc1c(Cl)cccc1Nc1ccccc1C(=O)O [tolfenamic-acid] | U2OS-LMNB1-TUBA1B-ACTB | cell count | 1.1 |
| C=CCNC1=C2C[C@@H](C)C[C@H](OC)[C@H](O)[C@@H](C)/C=C(\C)[C@H](OC(N)=O)[C@@H](OC)/C=C\C=C(/C)C(=O)NC(=CC1=O)C2=O [tanespimycin] | U2OS-LMNB1-TUBA1B-ACTB | cell count | 0.956 |
| CO[C@H]1C[C@@H]2CC[C@@H](C)[C@@](O)(O2)C(=O)C(=O)N2CCCC[C@H]2C(=O)O[C@H]([C@H](C)C[C@@H]2CC[C@@H](OP(C)(C)=O)[C@H](OC)C2)CC(=O)[C@H](C)/C=C(\C)[C@@H](O)[C@@H](OC)C(=O)[C@H](C)C[C@H](C)/C=C/C=C/C=C/1C [deforolimus] | U2OS-LMNB1-TUBA1B-ACTB | cell count | 0.644 |
| CCc1c2c(nc3ccc(OC(=O)N4CCC(N5CCCCC5)CC4)cc13)-c1cc3c(c(=O)n1C2)COC(=O)[C@]3(O)CC [irinotecan] | U2OS-LMNB1-TUBA1B-ACTB | cell count | 0.998 |
| O=c1[nH]c(=O)n([C@H]2C[C@H](O)[C@@H](CO)O2)cc1F [floxuridine] | U2OS-LMNB1-TUBA1B-ACTB | cell count | 1 |
| COc1ccc2cc1Oc1ccc(cc1)C[C@H]1c3cc(c(OC)cc3CCN1C)Oc1c(OC)c(OC)cc3c1[C@H](C2)N(C)CC3 [tetrandrine] | U2OS-LMNB1-TUBA1B-ACTB | cell count | 1.06 |
| CC[C@]1(O)C[C@H]2CN(CCc3c([nH]c4ccccc34)[C@@](C(=O)OC)(c3cc4c(cc3OC)N(C=O)[C@H]3[C@@](O)(C(=O)OC)[C@H](OC(C)=O)[C@]5(CC)C=CCN6CC[C@]43[C@@H]65)C2)C1 [vincristine] | U2OS-LMNB1-TUBA1B-ACTB | cell count | 0.651 |
| N#C[C@H](O[C@@H]1O[C@H](CO[C@@H]2O[C@H](CO)[C@@H](O)[C@H](O)[C@H]2O)[C@@H](O)[C@H](O)[C@H]1O)c1ccccc1 [amygdalin] | U2OS-LMNB1-TUBA1B-ACTB | cell count | 1.15 |
| CC(C)n1c(/C=C/C(O)CC(O)CC(=O)O)c(-c2ccc(F)cc2)c2ccccc21 (configuration not stated) [fluvastatin] | U2OS-LMNB1-TUBA1B-ACTB | cell count | 0.939 |
